# Tested on: SK-MEL-28
# method-summary: NCI tumour cell line growth inhibition, 48 h
Active and inactive are the calls of the source. Rule as the data show it: active = GI50 up to about 1.1 µM and inactive = higher.
Outcomes you can answer with include only these: True for active, False for inactive

molecule: COc1ccc2c3ccc4c(c3n(C)c2c1)C(=O)C=CC4=O
class-label: False

Check the results log: what was the call for C(=C/c1ccc2nc(-c3ccc(/C=C/C=N/NC4=NCCCN4)cc3)cn2c1)/C=N/NC1=NCCCN1 ?
False

What was the test verdict on Cc1cccc(C2NC(=O)c3ccccc3N2)c1 (stereo unspecified) ?
False

* * *

# System: DU-145
# method-summary: NCI tumour cell line growth inhibition, 48 h
The source made the active and inactive calls. Rule as the data show it: active = GI50 up to about 1.1 µM and inactive = higher.
Your answer must be one of the following: active, inactive

// known answers, use as guide
compound: O=C(/C=C/c1ccc(Cl)cc1)c1cccs1
class-label: inactive
//
compound: C=CCSc1nn(CC=C)cc2ncnc1-2
class-label: inactive
//
compound: O=C1C=CC(=O)c2c(O)c(N(CCCl)CCCl)c(Cl)c(O)c21
class-label: inactive
//
compound: CC(C(=O)O)c1ccc(-n2nnc3c(=O)[nH][nH]c(=O)c32)cc1 (stereo not drawn)
class-label: inactive
//
compound: CN(C)CCNC(=O)c1cccc2c(NC(CCCNC(=N)N)C(=O)O)c3ccccc3[n+](C)c12 (stereo not drawn)
class-label: inactive
//
compound: CC(=O)NC(CCCCN(Cc1ccccc1)C(=O)N(CCCl)N=O)C(=O)NCc1ccccc1 (stereo not drawn)
class-label: inactive
//
compound: Clc1cc(-c2ccccc2)nc(Nc2nc3ccccc3[nH]2)n1
class-label: inactive
//
compound: CCn1cc(C(=O)O)c(=O)c2cc(F)c(N3CCN(CN4C(=O)/C(=N\c5ncc(Cc6cc(OC)c(OC)c(OC)c6)c(N)n5)c5cc(Cl)ccc54)CC3)cc21
class-label: inactive
//
compound: Cc1ccc(/N=N/C(=N\c2ccc(Cl)cc2)c2ccc(N(CCC#N)CCC#N)cc2)cc1
class-label: inactive
//
compound: C/C=C1\CC2C(=O)CCC2C2c3ccccc3OC12 (stereo not drawn)
class-label: active

Which outcome was entered for the compound CC(C)S(=O)(=O)ON1C(=O)c2ccc(N(C)C)cc2C1=O in this test?
inactive

Please indicate how the test categorized Nc1c(C(=O)c2ccccc2)nnc2ccccc12 .
inactive

Which outcome was assigned to COc1ccc(N2C(=O)C3c4[nH]c5ccccc5c4C4CCC(C(C)(C)C)CC4C3C2=O)c(C)c1 (stereo not drawn) in this test?
inactive

Given CCCCCCCCCCCCCCCCOCC(COP(=O)(O)OCC1OC(n2cc(CC)c(=O)[nH]c2=O)CC1O)OC(=O)CCCCCCCCCCCCCCC (stereo not drawn) , state the outcome it received in this test.
inactive

Status in this test for CN(C)c1ccc(/C=C2\N=C(c3ccccc3)N(c3nc4ccc(Sc5ccccc5)cc4[nH]3)C2=O)cc1 ?
inactive

Hello, I am checking results. What call was entered for CCCOP(=O)(OCCC)OC(C(F)(F)F)C(F)(F)F ?
inactive

State the result this test recorded for COc1cc2nc(Nc3cccc(Br)c3)nc(Nc3cccc(Br)c3)c2cc1OC .
inactive

Dear all, I need the recorded test outcome for CSc1ccc(-c2cc(-c3nc4ccccc4[nH]3)nc3[nH]c(-c4nc5ccccc5[nH]4)cc(=O)c23)cc1 , thank you.
inactive

Call for entry COc1ccc(/C=N/NC(=O)c2ccc(O)c(CN(C)C)c2)cc1 :
inactive

Returns: the outcome recorded for O=C1c2ccccc2-c2c1c1ccccc1c(=O)n2-c1ccccc1 in this assay.
inactive
